Target: T1, human IL-33 (R&D Systems, #3625-IL-010/CF) (human) (UniProt O95760)
T1 sequence (looked up): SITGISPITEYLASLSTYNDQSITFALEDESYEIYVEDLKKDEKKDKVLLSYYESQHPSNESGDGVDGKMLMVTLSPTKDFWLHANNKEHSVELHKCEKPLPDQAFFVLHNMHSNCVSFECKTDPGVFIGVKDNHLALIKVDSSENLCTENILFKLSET
reported.endpoint: IC50; IFN-gamma ELISA, primary human NK cells, 260 pM hIL-33 + IL-12

{"binder": "H4H9666P (antibody, from another filing, IgG4, V domains shown) VH: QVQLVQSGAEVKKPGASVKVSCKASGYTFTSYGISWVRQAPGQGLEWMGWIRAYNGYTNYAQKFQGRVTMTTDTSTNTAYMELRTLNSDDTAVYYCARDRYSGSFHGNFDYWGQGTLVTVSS VL: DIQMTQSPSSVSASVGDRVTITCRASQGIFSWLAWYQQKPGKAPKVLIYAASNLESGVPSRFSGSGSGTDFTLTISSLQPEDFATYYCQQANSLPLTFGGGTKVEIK", "result": "1e-08 M"}
